molecular target: T1, PSMA Fab (006 PSMA Fab); assay: phage binding ELISA; biotinylated PSMA Fab on neutravidin plate, clonal phage supernatant, anti-M13 HRP detection;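 further: wells were preincubated with blocking buffer either containing PSMA antigen or without it before crude phage supernatant was added, briefly incubated, then washed prior to detection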
T1 construct: also called Anti-PSMA Fab; anti-PSMA Fab
Here, each record is paired with measured Phage binding ELISA signal, Anti-PSMA Fab data.
The answer should be a number; do not append a unit.

Here's what some known entries look like.
BINDER	ASSAY_RESULT
LNVECVPQWMCDGF (Tested as clonal phage supernatant; not shown: fused to the pIII filament protein of the bacteriophage) [Phage-3932 (Peptide-180 library clone)]	0.965
PTIMCIPVWMCQAF (Tested as clonal phage supernatant; not shown: fused to the pIII filament protein of the bacteriophage) [Phage-3931 (Peptide-180 library clone)]	0.966
PGFWCQPKWMCEGF (Tested as clonal phage supernatant; not shown: fused to the pIII filament protein of the bacteriophage) [Phage-3935 (Peptide-180 library clone)]	0.93

Exercise: Find the recorded Phage binding ELISA signal, Anti-PSMA Fab belonging to QLLRCVPPWMCEGF (Tested as clonal phage supernatant; not shown: fused to the pIII filament protein of the bacteriophage) [Phage-3930 (Peptide-180 library clone)] and report it.
Key: 0.97

These data points were gathered from patent US20260242478A1.
